Reference source: patent US8501762B2

# experimental_target: dopamine D1 receptor (Homo sapiens, UniProt P21728)
# Sequence (P21728 whole entry): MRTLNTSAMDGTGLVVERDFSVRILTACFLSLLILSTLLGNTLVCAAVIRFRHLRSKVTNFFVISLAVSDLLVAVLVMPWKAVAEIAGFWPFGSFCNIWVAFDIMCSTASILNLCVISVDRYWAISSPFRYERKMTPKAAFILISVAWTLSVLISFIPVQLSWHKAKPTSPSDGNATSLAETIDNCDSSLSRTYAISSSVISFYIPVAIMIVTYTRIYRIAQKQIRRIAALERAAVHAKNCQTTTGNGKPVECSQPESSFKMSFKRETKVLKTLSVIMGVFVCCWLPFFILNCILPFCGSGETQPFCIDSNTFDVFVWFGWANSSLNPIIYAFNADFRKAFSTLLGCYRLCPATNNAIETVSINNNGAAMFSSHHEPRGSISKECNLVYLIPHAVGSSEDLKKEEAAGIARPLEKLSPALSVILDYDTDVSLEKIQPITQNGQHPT
# assay_notes: Dopamine receptor competitive binding, D1
# measurement_parameters: tested at 1 × 10^−5 mol/L
readout_name: inhibition at 10 µM (%)

• COc1cc2c(cc1O)C1Cc3c(Cl)cc(OC)c(OC(C)=O)c3CN1CC2 (single isomer, unassigned; (-)) = 100
• Oc1cc2c(cc1O)C1Cc3c(Cl)cc(O)c(O)c3CN1CC2 (centres unmarked) = 100
• CCOC(=O)Oc1c(OC)cc(Cl)c2c1CN1CCc3cc(OC)c(O)cc3C1C2 (centres unmarked) = 100
• COc1cc2c(cc1O)C1Cc3c(Cl)cc(OC)c(OCCO)c3CN1CC2 (centres unmarked) = 97.9
• COc1cc2c(cc1OC(C)=O)C1Cc3c(Cl)cc(OC)c(OC(C)=O)c3CN1CC2 (single isomer, unassigned; (-)) = 100
• COc1cc2c(cc1OC(C)=O)C1Cc3ccc(OC)c(OC(C)=O)c3CN1CC2 (centres unmarked) = 99.4
• COCCOCCOCC(=O)Oc1cc2c(cc1OC)CCN1Cc3c(c(Cl)cc(OC)c3OC(=O)COCCOCCOC)CC21 (centres unmarked) = 96.2
• COc1cc2c(cc1OCc1ccccc1)C1Cc3c(Cl)cc(OC)c(OC(=O)[C@@H](N)Cc4ccccc4)c3CN1CC2 (some centres unmarked) = 77.5
